# STUDY_SYSTEM: recombinant human non-muscle myosin 2 NM2B (Homo sapiens)
# Sequence (P35580 whole entry): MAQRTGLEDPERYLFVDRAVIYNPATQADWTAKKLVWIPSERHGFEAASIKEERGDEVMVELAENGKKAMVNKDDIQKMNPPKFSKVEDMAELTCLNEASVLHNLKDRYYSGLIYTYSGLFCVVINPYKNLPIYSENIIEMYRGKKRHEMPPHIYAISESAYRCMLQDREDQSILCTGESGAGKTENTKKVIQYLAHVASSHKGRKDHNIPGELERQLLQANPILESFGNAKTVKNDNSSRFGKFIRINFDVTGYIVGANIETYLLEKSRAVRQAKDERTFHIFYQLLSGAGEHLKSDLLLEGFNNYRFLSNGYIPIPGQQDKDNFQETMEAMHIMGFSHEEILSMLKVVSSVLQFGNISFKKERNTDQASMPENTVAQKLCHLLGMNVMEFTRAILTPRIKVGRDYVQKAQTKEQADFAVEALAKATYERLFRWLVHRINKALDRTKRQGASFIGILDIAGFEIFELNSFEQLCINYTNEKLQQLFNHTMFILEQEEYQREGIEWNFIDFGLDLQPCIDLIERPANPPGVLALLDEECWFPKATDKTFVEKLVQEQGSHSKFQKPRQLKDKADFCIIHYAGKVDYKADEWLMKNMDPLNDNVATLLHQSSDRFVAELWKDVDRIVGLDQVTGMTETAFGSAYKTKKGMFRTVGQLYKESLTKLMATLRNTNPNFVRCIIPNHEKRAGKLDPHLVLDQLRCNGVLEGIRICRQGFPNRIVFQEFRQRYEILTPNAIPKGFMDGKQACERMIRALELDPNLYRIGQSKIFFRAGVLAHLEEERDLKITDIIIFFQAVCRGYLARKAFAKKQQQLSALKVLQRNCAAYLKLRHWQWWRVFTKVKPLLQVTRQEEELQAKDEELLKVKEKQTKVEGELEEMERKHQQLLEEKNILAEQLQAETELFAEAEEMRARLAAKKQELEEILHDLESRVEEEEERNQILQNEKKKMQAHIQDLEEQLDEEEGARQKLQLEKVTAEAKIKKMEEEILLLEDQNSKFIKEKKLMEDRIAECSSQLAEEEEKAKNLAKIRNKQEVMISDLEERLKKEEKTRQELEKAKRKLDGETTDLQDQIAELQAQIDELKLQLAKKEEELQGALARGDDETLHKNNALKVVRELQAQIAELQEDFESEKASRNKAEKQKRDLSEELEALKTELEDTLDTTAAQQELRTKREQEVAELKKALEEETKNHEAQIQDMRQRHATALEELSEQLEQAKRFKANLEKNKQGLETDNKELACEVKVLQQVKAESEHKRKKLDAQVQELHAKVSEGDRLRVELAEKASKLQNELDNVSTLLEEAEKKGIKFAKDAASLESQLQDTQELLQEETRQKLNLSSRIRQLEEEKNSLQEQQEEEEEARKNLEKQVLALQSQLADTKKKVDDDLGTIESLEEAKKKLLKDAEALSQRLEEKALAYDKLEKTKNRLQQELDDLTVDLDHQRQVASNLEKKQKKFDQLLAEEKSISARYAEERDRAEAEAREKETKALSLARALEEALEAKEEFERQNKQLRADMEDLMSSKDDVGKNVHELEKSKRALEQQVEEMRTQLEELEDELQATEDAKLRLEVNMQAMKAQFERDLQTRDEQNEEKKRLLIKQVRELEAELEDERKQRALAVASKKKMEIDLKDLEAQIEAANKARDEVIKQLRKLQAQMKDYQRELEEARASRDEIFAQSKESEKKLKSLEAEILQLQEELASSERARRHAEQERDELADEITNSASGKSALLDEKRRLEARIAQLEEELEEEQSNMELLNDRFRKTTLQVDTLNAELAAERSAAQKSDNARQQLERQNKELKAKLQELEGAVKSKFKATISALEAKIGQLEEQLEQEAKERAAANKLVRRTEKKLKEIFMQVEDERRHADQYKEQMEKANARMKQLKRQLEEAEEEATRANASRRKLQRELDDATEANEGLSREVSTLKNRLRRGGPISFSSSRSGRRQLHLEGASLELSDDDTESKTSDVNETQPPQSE
# METHOD_SUMMARY: actomyosin steady state ATPase measurement, NM2B
# Assay type: biochemical
# STATED_CONDITIONS: concentration required for semi-maximal inhibition of ATPase
MEASURE_NAME: IC50 (µM)
Hi! Could you send only the number? It should be in µM, unit omitted.

*Q* Look up IC50: O=C1c2ccsc2N=C2N(c3ccccc3)CCC12O (stereo not drawn) [Compound 180]
*A* 18.7

Further cases:
*Q* Look up IC50: O=C1c2sccc2N=C2N(c3ccccc3)CCC12O (stereo not drawn) [Compound 183]
*A* 12

*Q* Subsequent entry: O=C1c2ccsc2N=C2N(c3ccc(N4CCOCC4)cc3)CCC12O (stereo not drawn) [Compound 188]
*A* 5

*Q* Subsequent entry: Cc1cc2c(s1)N=C1N(c3ccccc3)CCC1(O)C2=O (stereo not drawn) [Compound 198]
*A* 15.1

*Q* Subsequent entry: O=C1c2ccncc2N=C2N(c3ccccc3)CCC12O (stereo not drawn) [Compound 174]
*A* 15

----------
# METHOD_SUMMARY: tissue concentrations after intraperitoneal injection into a live rat
# Type: in vivo
# STATED_CONDITIONS: ip, 6 mg i.p., 45 min, skeletal muscle, read-out: Concentration of compound 188 in tissue samples (μM) muscle
MEASURE_NAME: concentration at 45 min (µM)
Hi! Could you send only the number? It should be in µM, unit omitted.

*Q* Look up concentration at 45 min: O=C1c2ccsc2N=C2N(c3ccc(N4CCOCC4)cc3)CCC12O (stereo not shown)
*A* 78

----------
Measured Maximum change of vital parameters (%) blood flow, listed per entry for reference.
# METHOD_SUMMARY: vital parameters of live anesthetized rats monitored during isometric force measurement
# Assay type: in vivo
# STATED_CONDITIONS: 6 mg i.p., anesthetized rat; neck arteries
Hi! Could you send only the number? It should be in %, unit omitted.

Here are 3 molecules together with their reported answers.
*Q* Look up Maximum change of vital parameters (%) blood flow: Cc1cc2c(s1)N=C1N(c3ccc(N4CCOCC4)cc3)CCC1(O)C2=O (stereo not shown)
*A* −1

*Q* Subsequent entry: O=C1c2ccsc2N=C2N(c3ccc(N4CCOCC4)cc3)CCC12O (stereo not shown)
*A* −1

*Q* Subsequent entry: O=C1c2ccncc2N=C2N(c3ccc(OC(F)(F)F)cc3)CCC12O (stereo not shown)
*A* −10

Further cases:
*Q* Look up Maximum change of vital parameters (%) blood flow: O=C1c2ccncc2N=C2N(c3ccccc3)CCC12O (stereo not shown)
*A* 4

----------
# STUDY_SYSTEM: recombinant Dictyostelium miozin (Dictyostelium) (Dictyostelium discoideum)
# Sequence (P08799 whole entry): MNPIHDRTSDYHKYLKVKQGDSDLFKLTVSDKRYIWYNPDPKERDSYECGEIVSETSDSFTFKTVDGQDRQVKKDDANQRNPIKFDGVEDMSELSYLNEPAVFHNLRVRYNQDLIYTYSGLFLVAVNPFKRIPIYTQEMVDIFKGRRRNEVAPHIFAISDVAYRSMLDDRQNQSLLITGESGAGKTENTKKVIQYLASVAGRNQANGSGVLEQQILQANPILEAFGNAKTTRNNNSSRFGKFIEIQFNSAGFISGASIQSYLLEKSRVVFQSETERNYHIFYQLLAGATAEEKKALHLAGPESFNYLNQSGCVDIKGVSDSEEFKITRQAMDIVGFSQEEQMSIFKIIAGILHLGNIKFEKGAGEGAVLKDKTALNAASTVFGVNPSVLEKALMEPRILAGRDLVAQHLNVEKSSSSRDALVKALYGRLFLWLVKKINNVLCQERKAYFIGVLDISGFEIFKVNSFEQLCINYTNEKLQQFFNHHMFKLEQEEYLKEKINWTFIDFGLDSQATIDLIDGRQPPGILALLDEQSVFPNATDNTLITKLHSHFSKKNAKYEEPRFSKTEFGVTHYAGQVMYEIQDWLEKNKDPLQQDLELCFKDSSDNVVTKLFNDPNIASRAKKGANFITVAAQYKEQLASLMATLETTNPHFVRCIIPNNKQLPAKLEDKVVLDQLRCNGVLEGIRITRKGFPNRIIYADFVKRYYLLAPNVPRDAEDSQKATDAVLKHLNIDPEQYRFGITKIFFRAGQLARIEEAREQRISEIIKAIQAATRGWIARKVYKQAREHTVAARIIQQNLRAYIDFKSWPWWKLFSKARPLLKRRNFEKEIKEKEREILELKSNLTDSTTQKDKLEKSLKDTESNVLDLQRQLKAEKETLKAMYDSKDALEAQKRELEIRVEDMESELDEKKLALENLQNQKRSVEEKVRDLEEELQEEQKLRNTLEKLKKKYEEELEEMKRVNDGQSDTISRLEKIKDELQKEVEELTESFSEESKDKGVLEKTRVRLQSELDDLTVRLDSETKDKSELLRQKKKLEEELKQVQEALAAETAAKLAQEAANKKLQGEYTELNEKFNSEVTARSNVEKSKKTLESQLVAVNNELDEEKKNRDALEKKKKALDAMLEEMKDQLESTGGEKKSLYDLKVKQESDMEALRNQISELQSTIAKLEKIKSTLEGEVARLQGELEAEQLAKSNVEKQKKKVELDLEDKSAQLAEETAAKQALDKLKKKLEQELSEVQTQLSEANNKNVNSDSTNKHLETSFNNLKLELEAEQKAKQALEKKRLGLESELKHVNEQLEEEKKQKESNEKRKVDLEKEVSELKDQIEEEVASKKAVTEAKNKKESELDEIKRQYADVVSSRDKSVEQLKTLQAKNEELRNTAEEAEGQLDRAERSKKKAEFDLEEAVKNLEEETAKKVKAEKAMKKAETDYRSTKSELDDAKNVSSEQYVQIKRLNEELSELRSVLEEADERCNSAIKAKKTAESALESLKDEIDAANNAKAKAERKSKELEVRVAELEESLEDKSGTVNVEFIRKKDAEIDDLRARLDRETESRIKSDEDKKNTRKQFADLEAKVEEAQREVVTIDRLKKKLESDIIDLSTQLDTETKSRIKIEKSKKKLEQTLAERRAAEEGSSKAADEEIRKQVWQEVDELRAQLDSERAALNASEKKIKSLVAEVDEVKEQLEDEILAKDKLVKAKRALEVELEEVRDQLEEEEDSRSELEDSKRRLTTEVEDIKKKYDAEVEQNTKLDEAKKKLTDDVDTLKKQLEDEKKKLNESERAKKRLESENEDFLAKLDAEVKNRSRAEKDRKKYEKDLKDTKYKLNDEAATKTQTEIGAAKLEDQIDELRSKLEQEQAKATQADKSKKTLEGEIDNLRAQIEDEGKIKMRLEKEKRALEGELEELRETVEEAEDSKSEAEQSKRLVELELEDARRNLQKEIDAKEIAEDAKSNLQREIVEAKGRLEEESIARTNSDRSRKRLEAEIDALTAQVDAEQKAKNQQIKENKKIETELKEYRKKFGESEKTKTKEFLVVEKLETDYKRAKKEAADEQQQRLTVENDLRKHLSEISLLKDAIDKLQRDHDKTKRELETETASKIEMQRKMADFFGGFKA
# METHOD_SUMMARY: actomyosin steady state ATPase measurement, Dictyostelium myosin
# Type: biochemical
# STATED_CONDITIONS: concentration required for semi-maximal inhibition of ATPase; read-out: IC50 (μM) Dicty
Measured log10(IC50), listed per entry for reference.
Remember, log10 of IC50, in µM.

Here are 10 compounds together with their reported answers.
*Q* API: value(readout= log10(IC50), system= recombinant Dictyostelium miozin (Dictyostelium) (Dictyostelium discoideum), query= "CN(C)c1ccc(N2CC[C@@]3(O)C(=O)c4ccsc4N=C23)cc1" )
*A* 1.00

*Q* Subsequent entry: O=C1c2ccsc2N=C2N(c3ccccc3)CCC12O (stereo not shown)
*A* 1.12

*Q* Subsequent entry: "O=C1c2ccsc2N=C2N(c3ccc(OC(F)(F)F)cc3)CC[C@@]12O"
*A* 1.04

*Q* Subsequent entry: O=C1c2ccncc2N=C2N(c3ccccc3)CCC12O (stereo not shown)
*A* 1.00

*Q* Subsequent entry: Cc1cc2c(s1)N=C1N(c3cccs3)CCC1(O)C2=O (stereo not shown)
*A* 0.15

*Q* Subsequent entry: "O=C1c2ccsc2N=C2N(c3ccc(CO)cc3)CC[C@@]12O"
*A* 1.12

*Q* Subsequent entry: "COc1ccc(N2CC[C@@]3(O)C(=O)c4ccsc4N=C23)cn1"
*A* 1.63

*Q* Subsequent entry: "Cc1ccc(N2CC[C@@]3(O)C(=O)c4ccsc4N=C23)cc1"
*A* 1.23

*Q* Subsequent entry: Cc1cc2c(s1)N=C1N(c3ccccc3)CCC1(O)C2=O (stereo not shown)
*A* 0.70

*Q* Subsequent entry: Cc1cc2c(s1)N=C1N(c3ccc(CO)cc3)CCC1(O)C2=O (stereo not shown)
*A* 0.71

Further cases:
*Q* API: value(readout= log10(IC50), system= recombinant Dictyostelium miozin (Dictyostelium) (Dictyostelium discoideum), query= Cc1cc2c(s1)N=C1N(c3ccc(OC(F)(F)F)cc3)CCC1(O)C2=O (stereo not shown) )
*A* 1.05

*Q* Subsequent entry: Cc1ccc(N2CCC3(O)C(=O)c4ccncc4N=C23)cc1 (stereo not shown)
*A* 1.85

*Q* Subsequent entry: CC(=O)c1ccc(N2CCC3(O)C(=O)c4ccncc4N=C23)cc1 (stereo not shown)
*A* -0.41

*Q* Subsequent entry: "N#Cc1ccc(N2CC[C@@]3(O)C(=O)c4ccsc4N=C23)cc1"
*A* 0.54

*Q* Subsequent entry: Cc1cc2c(s1)N=C1N(c3ccc(N)cc3)CCC1(O)C2=O (stereo not shown)
*A* 1.06

----------
# STUDY_SYSTEM: isolated porcine cardiac ventricular myocardium (cardiac) (Sus scrofa)
# Construct: isolated porcine cardiac ventricular myocardium (cardiac); from tissue; host or cells: porcine cardiac ventricle
# METHOD_SUMMARY: actomyosin steady state ATPase measurement, cardiac myosin
# Format: biochemical
# STATED_CONDITIONS: read-out: % inhibition at 50 μM (or 100 μM if racemate) cardiac; 50 μM (100 μM if racemate); ATPase activity
MEASURE_NAME: inhibition at 50 µM (%)
Hi! Could you send only the number? It should be in %, unit omitted.

*Q* Look up inhibition at 50 µM: Cc1ccc(N2CC[C@@]3(O)C(=O)c4ccsc4N=C23)cc1 [Compound 233]
*A* 87

*Q* Subsequent entry: CC(=O)c1ccc(N2CCC3(O)C(=O)c4ccncc4N=C23)cc1 (stereo not shown) [Compound 240]
*A* 31

*Q* Subsequent entry: Cc1cc2c(s1)N=C1N(c3ccc(CO)cc3)CCC1(O)C2=O (stereo not shown) [Compound 227]
*A* 89

*Q* Subsequent entry: O=C1c2ncccc2N=C2N(c3ccccc3)CCC12O (stereo not shown) [Compound 190]
*A* 43

Further cases:
*Q* Look up inhibition at 50 µM: O=C1c2ccncc2N=C2N(c3ccc(OC(F)(F)F)cc3)CCC12O (stereo not shown) [Compound 238]
*A* 47

*Q* Subsequent entry: Cc1cc2c(s1)N=C1N(c3ccc(OC(F)(F)F)cc3)CCC1(O)C2=O (stereo not shown) [Compound 223]
*A* 93

----------
Measured % inhibition. complete Smooth, listed per entry for reference.
# STUDY_SYSTEM: isolated smooth muscle myosin (UniProt P10587)
# Type: biochemical, chamois
# STATED_CONDITIONS: maximum value of inhibition of ATPase activity
Hi! Could you send only the number? It should be in %, unit omitted.

Here are 3 molecules together with their reported answers.
*Q* Look up % inhibition. complete Smooth: Cc1cc2c(s1)N=C1N(c3ccc(OC(F)(F)F)cc3)CCC1(O)C2=O (centres unmarked)
*A* 100

*Q* Subsequent entry: COc1ccc(N2CCC3(O)C(=O)c4cc(C)sc4N=C23)cc1 (centres unmarked)
*A* 98

*Q* Subsequent entry: "N#CCc1ccc(N2CC[C@@]3(O)C(=O)c4ccsc4N=C23)cc1"
*A* 47

Further cases:
*Q* Look up % inhibition. complete Smooth: Cc1nsc2c1C(=O)C1(O)CCN(c3ccccc3)C1=N2 (centres unmarked)
*A* 24

*Q* Subsequent entry: "CN(C)c1ccc(N2CC[C@@]3(O)C(=O)c4ccsc4N=C23)cc1"
*A* 69

*Q* Subsequent entry: Cc1ccc(N2CCC3(O)C(=O)c4cc(C)sc4N=C23)cc1 (centres unmarked)
*A* 81

*Q* Subsequent entry: O=C1c2sccc2N=C2N(c3ccccc3)CCC12O (centres unmarked)
*A* 66

*Q* Subsequent entry: "COc1ccc(N2CC[C@@]3(O)C(=O)c4ccsc4N=C23)cc1"
*A* 85

*Q* Subsequent entry: "Cc1cc2c(s1)N=C1N(c3cccs3)CC[C@@]1(O)C2=O"
*A* 66

*Q* Subsequent entry: "O=C1c2ccsc2N=C2N(c3ccc(CO)cc3)CC[C@@]12O"
*A* 46

*Q* Subsequent entry: "O=C1c2ccsc2N=C2N(c3ccc(OC(F)(F)F)cc3)CC[C@@]12O"
*A* 74

*Q* Subsequent entry: O=C1c2ccncc2N=C2NCCC12O (centres unmarked)
*A* 3

*Q* Subsequent entry: COc1ccc(N2CCC3(O)C(=O)c4cc(C)sc4N=C23)cn1 (centres unmarked)
*A* 100

*Q* Subsequent entry: Cc1cc2c(s1)N=C1N(c3cccs3)CCC1(O)C2=O (centres unmarked)
*A* 93

*Q* Subsequent entry: "CC(=O)c1ccc(N2CC[C@@]3(O)C(=O)c4ccsc4N=C23)cc1"
*A* 100

*Q* Subsequent entry: "N#Cc1ccc(N2CC[C@@]3(O)C(=O)c4ccsc4N=C23)cc1"
*A* 78

*Q* Subsequent entry: Cc1cc2c(s1)N=C1N(c3ccccc3)CCC1(O)C2=O (centres unmarked)
*A* 100

*Q* Subsequent entry: "Cc1ccc(N2CC[C@@]3(O)C(=O)c4ccsc4N=C23)cc1"
*A* 83

*Q* Subsequent entry: "O=C1c2ccsc2N=C2N(c3cccs3)CC[C@@]12O"
*A* 28

*Q* Subsequent entry: Cc1cc2c(s1)N=C1N(c3ccc(CC#N)cc3)CCC1(O)C2=O (centres unmarked)
*A* 80
